molecular target: Rabies virus glycoprotein G, Challenge Virus Standard (CVS)-11 strain (Rabies virus, strain CVS-11 (genotype 1 Lyssavirus)) (UniProt O92284); experiment: cell-based or functional assay
Sequence (O92284 20-524 limits assumed): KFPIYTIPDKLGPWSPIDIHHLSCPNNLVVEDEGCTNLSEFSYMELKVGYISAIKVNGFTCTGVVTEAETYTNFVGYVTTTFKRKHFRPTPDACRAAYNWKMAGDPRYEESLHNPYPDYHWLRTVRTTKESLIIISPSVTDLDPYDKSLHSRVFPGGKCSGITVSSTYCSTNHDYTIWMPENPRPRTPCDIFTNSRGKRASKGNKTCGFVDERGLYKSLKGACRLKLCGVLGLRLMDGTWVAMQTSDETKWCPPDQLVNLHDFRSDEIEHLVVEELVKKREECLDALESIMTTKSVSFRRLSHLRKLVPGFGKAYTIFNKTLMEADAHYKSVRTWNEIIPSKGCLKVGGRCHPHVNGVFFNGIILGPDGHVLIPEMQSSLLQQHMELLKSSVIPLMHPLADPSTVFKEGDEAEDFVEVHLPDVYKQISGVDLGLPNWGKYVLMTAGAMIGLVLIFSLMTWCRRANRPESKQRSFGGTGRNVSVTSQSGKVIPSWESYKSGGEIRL
outcomeMeasure: CVS-11 neutralizing antibody titer (RFFIT), IU/mg (IU/mg)
Entry rule: numbers only, all in IU/mg.

Quick one: CVS-11 neutralizing antibody titer (RFFIT), IU/mg for LG213E6 (VHH) VHH: EVQLVESGGGLVQAGASLRLSCAASGSTLSRYGVGWFRQAPGKERELVASVDWSGSRTYYADSVKGRFTISRDNAKNTGYLQMNSLKPDDTAVYYCAADSSVVPGIEKYDDWGLGTQVTVSS ?
170

Would you mind doing LG212C12 (VHH) VHH: EVQLVESGGGLVQPGGSLRLSCAASGFTFGSSDMSWVRQAPGKGPEWVSGINSGGGRTLYADSVKGRFTISRDNAKNTLYLQMNSLKSEDTAVYYCATDLYGSSWYTDYWSQGTQVTVSS as well?
308

Would you mind doing LG214A8 (VHH) VHH: EVQLVKSGGGSVQAGGSLRLSCAASGGTFNPYVMAWFRQAPGNEREFVARIRWSGGDAYYDDSVKGRFAITRDAAKNTVHLQMNSLKPEDTAVYYCAAATYGYGSYTYGGSYDLWGQGTQVTVSS as well?
7.93

Would you mind doing LG212G2 (VHH) VHH: EVQLVESGGGLVQPGGSLRLSCAASGFTFGSHDMSWVRQAPGKGSEWVSGIKSGGGSTLYADSVKGRFAISRDNAKNTLYLQMNSLKPEDTAVYYCATDLYGSTWYPGEDRGTQVTVSS as well?
9.31
